- test: glutamate transport activators, MN-1 cells, MN-1 cell line (AID 1612);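 also: tested at 1 µM final; 0% = mean of DMSO vehicle wells on each plate; positive means more glutamate uptake than control and negative means less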
- condition_parameters: MN-1 motor neuron cells, stronger effect = higher value
Peptide text beside a SMILES is read from it.
outcome_measure: glutamate uptake change (%)
Numbers only, in %.

Solved entries (count: 5):
1. COc1ccc(-c2cc(=O)c3c(O)cc(O)cc3o2)cc1; -9.64
2. CC(Oc1ccccc1)C(=O)NC1C(=O)N2C(C(=O)O)C(C)(C)S[C@H]12 (stereo partly drawn); 4.57
3. OCCS; 5.07
4. CCC[C@@H]1C[C@@H](C(=O)NC(C(C)Cl)C2O[C@H](SC)[C@H](O)[C@@H](O)[C@H]2O)N(C)C1 (stereo partly drawn); -13
5. NCCNC(=O)c1ccc(Cl)cc1; 11.9

I need glutamate uptake change for every entry listed below, if you could help.
1. NC[C@@H]1O[C@H](O[C@H]2[C@@H](O)[C@H](O[C@@H]3[C@@H](O)[C@H](N)C[C@H](N)[C@H]3O[C@@H]3O[C@H](CO)[C@@H](O)C[C@H]3N)O[C@@H]2CO)[C@H](N)[C@@H](O)[C@@H]1O[C@H]1O[C@H](CO)[C@@H](O)[C@H](O)[C@@H]1O
2. C1CCN2C[C@@H]3CC(CN4CCCC[C@@H]34)[C@H]2C1
3. COc1ccc2c(c1OC)C(=O)O[C@H]2[C@@H]1c2ccccc2CCN1C
4. COC(=O)/C(=C1\OC(=O)C(c2ccccc2)C1=O)c1ccccc1 (stereo not drawn)
5. CC1(C)O[C@@H]2C[C@H]3C4C[C@H](F)C5=CC(=O)C=CC5(C)[C@@]4(F)[C@@H](O)C[C@]3(C)[C@]2(C(=O)CO)O1 (stereo partly drawn)
6. CC12CC[C@@H]3c4ccc(O)cc4CCC3[C@@H]1CCC2=O (stereo partly drawn)

1. 1.1
2. -9.72
3. -0.43
4. 6.01
5. 15.9
6. -29

I need glutamate uptake change for every entry listed below, if you could help.
1. CC(=O)C1CCC2C3CC=C4CC(OS(=O)(=O)O)CC[C@]4(C)C3CC[C@]12C (stereo partly drawn)
2. Cc1cc(Nc2ccccc2C(=O)O)ccc1Cl
3. CC(NC(=O)C(NC(=O)OCc1ccccc1)C(C)C)C(=O)NC(CC(=O)O)C(=O)OC(F)F (stereo not drawn)
4. OCc1cc2c(cn1)[nH]c1ccccc12
5. C[C@@H]1OC(Oc2c(-c3ccc(O)c(O)c3)oc3cc(O)cc(O)c3c2=O)[C@H](O)[C@H](O)[C@H]1O (stereo partly drawn)
6. NCCCCC(N)C(=O)NC(Cc1c[nH]c2ccccc12)C(=O)NC(CCCCN)C(=O)O (stereo not drawn) (H-Lys-Trp-Lys-OH; configuration not given here)
7. CC(=O)OCC(=O)[C@@]12OC(C)(C)O[C@@H]1C[C@H]1C3C[C@H](F)C4=CC(=O)C=CC4(C)[C@@]3(F)[C@@H](O)C[C@@]12C (stereo partly drawn)

48.1
-15.3
2.37
17.8
-4.44
46.5
13.8

Reference source for all entries: PubChem BioAssay
